Would you kindly list IC50 for each of these molecules?
targetOrTestSystem: Phosphatidylinositol 4,5-bisphosphate 3-kinase catalytic subunit beta isoform (Homo sapiens, UniProt P42338)
Sequence (P42338 whole entry, canonical isoform): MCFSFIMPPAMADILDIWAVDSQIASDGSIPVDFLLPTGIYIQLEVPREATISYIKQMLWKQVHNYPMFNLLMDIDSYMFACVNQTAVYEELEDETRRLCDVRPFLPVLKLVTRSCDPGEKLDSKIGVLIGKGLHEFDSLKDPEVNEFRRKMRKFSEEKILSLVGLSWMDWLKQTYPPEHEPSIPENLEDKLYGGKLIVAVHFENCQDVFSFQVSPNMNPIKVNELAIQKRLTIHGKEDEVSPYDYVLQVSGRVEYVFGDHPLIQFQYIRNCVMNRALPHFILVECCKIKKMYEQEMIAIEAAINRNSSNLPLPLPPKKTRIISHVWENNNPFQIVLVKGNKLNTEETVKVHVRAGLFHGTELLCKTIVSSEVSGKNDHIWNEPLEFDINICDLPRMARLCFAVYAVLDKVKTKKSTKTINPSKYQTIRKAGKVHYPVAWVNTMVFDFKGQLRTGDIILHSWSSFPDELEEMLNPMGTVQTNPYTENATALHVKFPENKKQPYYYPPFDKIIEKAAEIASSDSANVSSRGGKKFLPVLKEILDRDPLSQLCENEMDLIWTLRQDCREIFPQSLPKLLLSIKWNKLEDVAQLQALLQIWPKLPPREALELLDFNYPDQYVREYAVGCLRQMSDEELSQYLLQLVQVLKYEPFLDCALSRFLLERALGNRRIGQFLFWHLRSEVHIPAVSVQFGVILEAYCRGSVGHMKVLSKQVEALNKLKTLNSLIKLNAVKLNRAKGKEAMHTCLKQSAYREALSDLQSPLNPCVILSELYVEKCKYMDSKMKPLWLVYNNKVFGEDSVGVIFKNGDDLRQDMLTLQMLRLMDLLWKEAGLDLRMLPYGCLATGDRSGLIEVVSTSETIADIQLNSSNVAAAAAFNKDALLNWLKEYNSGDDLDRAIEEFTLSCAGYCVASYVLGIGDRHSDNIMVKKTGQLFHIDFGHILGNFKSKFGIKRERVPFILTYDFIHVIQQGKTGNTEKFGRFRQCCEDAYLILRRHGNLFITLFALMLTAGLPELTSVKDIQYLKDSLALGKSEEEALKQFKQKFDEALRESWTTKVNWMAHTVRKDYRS
testDetails: Inhibition of PI3Kbeta (unknown origin) by biochemical Alphascreen assay

Request: Which IC50 value is on record for `C[C@H](Nc1ncnc(N)c1C#N)c1nc2ccc(F)cc2c(N2CC(O)C2)c1-c1ccccn1` ?
Response: 280 nM

Request: Which IC50 value is on record for `C[C@H](Nc1ncnc(N)c1C#N)c1nc2ccc(F)cc2c(NCCN(C)C)c1-c1ccccc1` ?
Response: 5000 nM

Request: I have this molecule here, CC(Nc1ncnc(N)c1C#N)c1nc2ccc(F)cc2c(O)c1-c1ccccc1 (racemic) , and I need its recorded IC50.
Response: > 20000 nM

Request: IC50 lookup needed for `COCCNc1c(-c2ccccc2)c([C@H](C)Nc2ncnc(N)c2C#N)nc2ccc(F)cc12` , thanks.
Response: 420 nM

Request: // IC50 lookup, key: `COCc1c(-c2ccccn2)c([C@H](C)Nc2ncnc(N)c2C#N)nc2ccc(F)cc12`
Response: 4030 nM

Request: # input molecule: `C[C@H](Nc1ncnc(N)c1C#N)c1nc2ccc(F)cc2c(S(C)(=O)=O)c1-c1ccccc1` ; wanted: its IC50
Response: 510 nM

Request: # lookup: IC50 of `C[C@H](Nc1ncnc(N)c1C#N)c1nc2ccc(F)cc2c(N2CCOCC2)c1-c1ccccn1`
Response: 80 nM

Request: Reported IC50 for `COc1c(-c2ccccc2)c([C@H](C)Nc2ncnc(N)c2C#N)nc2ccc(F)cc12` : what is it?
Response: 8.2 nM

Request: For the molecule shown here, CC(Nc1ncnc(N)c1C#N)c1nc2ccc(F)cc2c(NCCO)c1-c1ccccc1 (racemic) , give the reported IC50.
Response: 460 nM

---

targetOrTestSystem: Phosphatidylinositol 4,5-bisphosphate 3-kinase catalytic subunit delta isoform (Homo sapiens)
Sequence (O00329 whole entry, canonical isoform): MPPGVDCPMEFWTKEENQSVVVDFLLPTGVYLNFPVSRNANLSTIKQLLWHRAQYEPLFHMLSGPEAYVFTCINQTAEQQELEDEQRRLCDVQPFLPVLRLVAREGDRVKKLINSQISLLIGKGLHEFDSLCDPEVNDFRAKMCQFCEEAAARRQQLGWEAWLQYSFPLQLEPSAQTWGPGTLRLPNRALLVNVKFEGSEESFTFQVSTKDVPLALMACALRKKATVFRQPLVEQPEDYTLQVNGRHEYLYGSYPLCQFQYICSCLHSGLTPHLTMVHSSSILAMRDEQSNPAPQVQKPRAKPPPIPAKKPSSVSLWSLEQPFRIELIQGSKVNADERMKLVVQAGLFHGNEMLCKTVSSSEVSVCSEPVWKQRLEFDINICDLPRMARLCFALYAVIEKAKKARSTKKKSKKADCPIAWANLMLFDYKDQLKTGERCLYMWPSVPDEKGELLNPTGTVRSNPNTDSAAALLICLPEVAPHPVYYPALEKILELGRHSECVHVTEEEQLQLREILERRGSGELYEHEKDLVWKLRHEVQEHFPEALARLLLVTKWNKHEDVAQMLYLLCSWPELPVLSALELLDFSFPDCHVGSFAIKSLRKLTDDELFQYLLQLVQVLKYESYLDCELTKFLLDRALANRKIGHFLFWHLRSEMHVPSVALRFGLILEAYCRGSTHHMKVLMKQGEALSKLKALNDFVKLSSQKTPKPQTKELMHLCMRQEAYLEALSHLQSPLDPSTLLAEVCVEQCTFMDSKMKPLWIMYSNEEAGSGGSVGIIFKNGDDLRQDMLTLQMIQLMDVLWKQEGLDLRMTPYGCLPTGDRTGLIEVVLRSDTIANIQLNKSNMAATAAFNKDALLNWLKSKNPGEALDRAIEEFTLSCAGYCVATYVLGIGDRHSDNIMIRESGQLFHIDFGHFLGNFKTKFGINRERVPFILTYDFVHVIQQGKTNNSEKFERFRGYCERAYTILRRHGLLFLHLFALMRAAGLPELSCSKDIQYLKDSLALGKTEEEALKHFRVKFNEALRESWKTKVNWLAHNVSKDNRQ
testDetails: Inhibition of PI3Kdelta (unknown origin) by biochemical Alphascreen assay
Threshold-based label: IC50 under 2 nM gives Satisfied, IC50 not under 2 nM gives Not satisfied.

Request: Take the compound `Cc1cccnc1-c1c(-c2ccccn2)c([C@H](C)Nc2ncnc(N)c2C#N)nc2ccc(F)cc12` and say whether its IC50 is less than 2 nM.
Response: Not satisfied

Request: In the record for CC(Nc1ncnc(N)c1C#N)c1nc2ccc(F)cc2c(Cl)c1-c1ccccn1 (racemic) , is IC50 less than 2 nM?
Response: Not satisfied

Request: Answer whether the compound CC(Nc1ncnc(N)c1C#N)c1nc2ccc(F)cc2c(C#N)c1-c1ccccn1 (racemic) has IC50 strictly less than 2 nM
Response: Not satisfied

Request: Take the compound C[C@H](Nc1ncnc(N)c1C#N)c1nc2ccc(F)cc2c([S+]([O-])CCO)c1-c1ccccc1 (some centres not stated) and say whether its IC50 is less than 2 nM.
Response: Not satisfied

Request: A record lists `C[C@H](Nc1ncnc(N)c1C#N)c1nc2ccc(F)cc2c(NCCN(C)C)c1-c1ccccc1` . Is its IC50 below 2 nM?
Response: Satisfied

Request: Say whether its IC50 is strictly beneath 2 nM. Entry: `COCc1c(-c2ccccn2)c([C@H](C)Nc2ncnc(N)c2C#N)nc2ccc(F)cc12`
Response: Not satisfied

Request: Strictly below 2 nM in IC50? `C[C@H](Nc1ncnc(N)c1C#N)c1nc2ccc(F)cc2c(S(C)(=O)=O)c1-c1ccccc1`
Response: Satisfied
